Provenance of the data: ChEMBL document CHEMBL1671615

- protocol: Clearance in BALB/c mouse at 4 to 5 mg/kg administered as inhalable bolus dose by HPLC
- Format: ADME, organism-based
- Set-up: dose 4-5 mg/kg
- assay_context: BALB/c, in vivo, inhaled or intranasal

smiles_text	CL/F
CO[C@H]1/C=C/O[C@@]2(C)Oc3c(C)c(O)c4c(c3C2=O)C2=NC3(CCN(CC(C)C)CC3)NC2=C(NC(=O)/C(C)=C\C=C\[C@H](C)[C@H](O)[C@@H](C)[C@@H](O)[C@@H](C)[C@H](OC(C)=O)[C@@H]1C)C4=O	0.195 mL/min

###

- System: Mus musculus
- protocol: Volume of distribution in BALB/c mouse at 4 to 5 mg/kg administered as inhalable bolus dose by HPLC
- Assay type: ADME, organism-based
- Parameters: dose 4-5 mg/kg
- assay_context: in vivo, inhaled_or_intranasal

compound	Vz
CO[C@H]1/C=C/O[C@@]2(C)Oc3c(C)c(O)c4c(c3C2=O)C2=NC3(CCN(CC(C)C)CC3)NC2=C(NC(=O)/C(C)=C\C=C\[C@H](C)[C@H](O)[C@@H](C)[C@@H](O)[C@@H](C)[C@H](OC(C)=O)[C@@H]1C)C4=O [RIFABUTIN]	2308.84 mL
NNC(=O)c1ccncc1 [ISONIAZID]	1670 mL

###

- protocol: Plasma concentration in BALB/c mouse at 4 to 5 mg/kg administered as inhalable bolus dose by HPLC
- Type: ADME, organism-based
- Set-up: dose 4-5 mg/kg
- assay_context: inhaled or intranasal

molecule	Cmax
CO[C@H]1/C=C/O[C@@]2(C)Oc3c(C)c(O)c4c(c3C2=O)C2=NC3(CCN(CC(C)C)CC3)NC2=C(NC(=O)/C(C)=C\C=C\[C@H](C)[C@H](O)[C@@H](C)[C@@H](O)[C@@H](C)[C@H](OC(C)=O)[C@@H]1C)C4=O [RIFABUTIN]	1590 ng/mL
NNC(=O)c1ccncc1 [ISONIAZID]	2370 ng/mL

###

Quick list: k el at 10 min, 3 ug/ml per entry.
- protocol: Elimination rate constant in human THP1 cells at 3 ug/ml after 10 mins by HPLC
- Assay type: ADME, cell-based
- assay_context: THP-1 cells
result_type: k el at 10 min, 3 ug/ml (s⁻¹)

molecule	meas_value
NNC(=O)c1ccncc1 [ISONIAZID]	9.44e-06
CO[C@H]1/C=C/O[C@@]2(C)Oc3c(C)c(O)c4c(c3C2=O)C2=NC3(CCN(CC(C)C)CC3)NC2=C(NC(=O)/C(C)=C\C=C\[C@H](C)[C@H](O)[C@@H](C)[C@@H](O)[C@@H](C)[C@H](OC(C)=O)[C@@H]1C)C4=O [RIFABUTIN]	1.39e-06

###

Quick list: Cmax per entry.
- protocol: Plasma concentration in BALB/c mouse at 4 to 5 mg/kg, iv administered as single bolus dose by HPLC
- Type: ADME, organism-based
- Parameters: dose 4-5 mg/kg, route intravenous

smiles_text	Cmax, ng/mL
CO[C@H]1/C=C/O[C@@]2(C)Oc3c(C)c(O)c4c(c3C2=O)C2=NC3(CCN(CC(C)C)CC3)NC2=C(NC(=O)/C(C)=C\C=C\[C@H](C)[C@H](O)[C@@H](C)[C@@H](O)[C@@H](C)[C@H](OC(C)=O)[C@@H]1C)C4=O	3470
NNC(=O)c1ccncc1	3240
